Origin of values: paper PMC4057667

test: Pharmacokinetic study in beagle dogs; assay type: in vivo; conditions: beagle, dog, plasma, iv, 30 mg/kg, mean ± SD, n = 3
ASSAY_METRIC: Cmax (ng/mL)
Give the value in ng/mL but do not write ng/mL after it.

Query block: Please list Cmax recorded for the compound CNC(=O)c1cc(Oc2ccc(NC(=O)c3cccc(C(F)(F)F)c3)cc2)ccn1.Cc1ccc(S(=O)(=O)O)cc1.O [NCE]
Result block: 23800

###

assay: Pharmacokinetic study in beagle dogs; format: in vivo; details: beagle, dog, plasma, iv, 30 mg/kg, Beagle3
ASSAY_METRIC: MRT (h)
Give the value in h but do not write h after it.

Query block: Please list MRT recorded for the compound CNC(=O)c1cc(Oc2ccc(NC(=O)c3cccc(C(F)(F)F)c3)cc2)ccn1.Cc1ccc(S(=O)(=O)O)cc1.O
Result block: 1.35

###

assay: Pharmacokinetic study in beagle dogs; format: in vivo; conditions: beagle, dog, plasma, po, 30 mg/kg, i.g., mean ± SD, n = 3
ASSAY_METRIC: MRT

Query block: Please list MRT recorded for the molecule CNC(=O)c1cc(Oc2ccc(NC(=O)c3cccc(C(F)(F)F)c3)cc2)ccn1.Cc1ccc(S(=O)(=O)O)cc1.O
Result block: 10.8 h

###

assay: Pharmacokinetic study in beagle dogs; type: in vivo; conditions: beagle, dog, plasma, po, 30 mg/kg, i.g., mean ± SD, n = 3
ASSAY_METRIC: half-life (h)
Give the value in h but do not write h after it.

Query block: Please list half-life recorded for the compound CNC(=O)c1cc(Oc2ccc(NC(=O)c3cccc(C(F)(F)F)c3)cc2)ccn1.Cc1ccc(S(=O)(=O)O)cc1.O
Result block: 14.8

###

Experiment: Pharmacokinetic study in beagle dogs
Assay type: in vivo
Details: beagle, dog, plasma, iv, 30 mg/kg, Beagle3
Experimental: Six healthy beagle dogs (7.97 ± 0.73 kg) were randomly assigned into two groups. NCE was given to the dogs by intragastrical (i.g.) and intravenous (i.v.) administration at a dosage of 30 mg/kg. Blood was collected from the forelimb vein of the dogs at 0.25, 0.5, 0.75, 1, 2, 3, 4, 6, 8, 10, 12 and 24 h. […] The concentrations of NCE in plasma were determined by HPLC. The pharmacokinetic parameters were calculated using the pharmacokinetics-intelligent analysis module of DAS 2.1.1 software. […]
ASSAY_METRIC: half-life
A complete answer gives the number and then names the unit.

Query block: Please list half-life recorded for the molecule CNC(=O)c1cc(Oc2ccc(NC(=O)c3cccc(C(F)(F)F)c3)cc2)ccn1.Cc1ccc(S(=O)(=O)O)cc1.O [NCE]
Result block: 9.23 h

###

experiment: Equilibrium solubility in phosphate buffers; format: physicochemical; settings: aqueous buffer, thermodynamic from solid; phosphate buffer pH 5.0, 37 °C, n = 3, mean
ASSAY_METRIC: solubility at 3 days (µg/mL)
Give the value in µg/mL but do not write µg/mL after it.

Query block: Please list solubility at 3 days recorded for the compound CNC(=O)c1cc(Oc2ccc(NC(=O)c3cccc(C(F)(F)F)c3)cc2)ccn1.Cc1ccc(S(=O)(=O)O)cc1.O [NCE]
Result block: 8.5

###

assay: Pharmacokinetic study in beagle dogs; format: in vivo; conditions: beagle, dog, plasma, po, 30 mg/kg, i.g., Beagle 6, read-out: F, absolute bioavailability
ASSAY_METRIC: bioavailability (%)
Give the value in % but do not write % after it.

Query block: Please list bioavailability recorded for the compound CNC(=O)c1cc(Oc2ccc(NC(=O)c3cccc(C(F)(F)F)c3)cc2)ccn1.Cc1ccc(S(=O)(=O)O)cc1.O
Result block: 28.5

###

assay: Solubility with sodium dodecyl sulfate (SDS) added; type: physicochemical; settings: phosphate buffer with 1% SDS, aqueous with cosolvent or surfactant or cyclodextrin
ASSAY_METRIC: solubility (µg/mL)
Give the value in µg/mL but do not write µg/mL after it.

Query block: Please list solubility recorded for the compound CNC(=O)c1cc(Oc2ccc(NC(=O)c3cccc(C(F)(F)F)c3)cc2)ccn1.Cc1ccc(S(=O)(=O)O)cc1.O
Result block: 132

###

Assay: Pharmacokinetic study in beagle dogs
Format: in vivo
Conditions: beagle, dog, plasma, po, 30 mg/kg, i.g., Beagle 4, read-out: F, absolute bioavailability
Procedure: Six healthy beagle dogs (7.97 ± 0.73 kg) were randomly assigned into two groups. NCE was given to the dogs by intragastrical (i.g.) and intravenous (i.v.) administration at a dosage of 30 mg/kg. Blood was collected from the forelimb vein of the dogs at 0.25, 0.5, 0.75, 1, 2, 3, 4, 6, 8, 10, 12 and 24 h. […] The concentrations of NCE in plasma were determined by HPLC. The pharmacokinetic parameters were calculated using the pharmacokinetics-intelligent analysis module of DAS 2.1.1 software. […]
ASSAY_METRIC: bioavailability (%)
Give the value in % but do not write % after it.

Query block: Please list bioavailability recorded for the compound CNC(=O)c1cc(Oc2ccc(NC(=O)c3cccc(C(F)(F)F)c3)cc2)ccn1.Cc1ccc(S(=O)(=O)O)cc1.O
Result block: 12.2

###

assay: Pharmacokinetic study in beagle dogs; format: in vivo; details: beagle, dog, plasma, po, 30 mg/kg, i.g., Beagle 5
ASSAY_METRIC: AUC(0-t)
A complete answer gives the number and then names the unit.

Query block: Please list AUC(0-t) recorded for the compound CNC(=O)c1cc(Oc2ccc(NC(=O)c3cccc(C(F)(F)F)c3)cc2)ccn1.Cc1ccc(S(=O)(=O)O)cc1.O [NCE]
Result block: 13600 ng·h/mL

###

assay: Pharmacokinetic study in beagle dogs; assay type: in vivo; details: beagle, dog, plasma, po, 30 mg/kg, i.g., Beagle 6
ASSAY_METRIC: AUC(0-t) (ng·h/mL)
Give the value in ng·h/mL but do not write ng·h/mL after it.

Query block: Please list AUC(0-t) recorded for the molecule CNC(=O)c1cc(Oc2ccc(NC(=O)c3cccc(C(F)(F)F)c3)cc2)ccn1.Cc1ccc(S(=O)(=O)O)cc1.O [NCE]
Result block: 7160

###

assay: Pharmacokinetic study in beagle dogs; type: in vivo; details: beagle, dog, plasma, po, 30 mg/kg, i.g., Beagle 5
ASSAY_METRIC: MRT (h)
Give the value in h but do not write h after it.

Query block: Please list MRT recorded for the molecule CNC(=O)c1cc(Oc2ccc(NC(=O)c3cccc(C(F)(F)F)c3)cc2)ccn1.Cc1ccc(S(=O)(=O)O)cc1.O
Result block: 10.6

###

assay: Pharmacokinetic study in beagle dogs; assay type: in vivo; conditions: beagle, dog, plasma, po, 30 mg/kg, i.g., Beagle 4
ASSAY_METRIC: MRT

Query block: Please list MRT recorded for the molecule CNC(=O)c1cc(Oc2ccc(NC(=O)c3cccc(C(F)(F)F)c3)cc2)ccn1.Cc1ccc(S(=O)(=O)O)cc1.O [NCE]
Result block: 10.8 h

###

experiment: Pharmacokinetic study in beagle dogs; format: in vivo; settings: beagle, dog, plasma, iv, 30 mg/kg, Beagle 2
ASSAY_METRIC: half-life
A complete answer gives the number and then names the unit.

Query block: Please list half-life recorded for the compound CNC(=O)c1cc(Oc2ccc(NC(=O)c3cccc(C(F)(F)F)c3)cc2)ccn1.Cc1ccc(S(=O)(=O)O)cc1.O
Result block: 214 min

###

assay: Pharmacokinetic study in beagle dogs; format: in vivo; conditions: beagle, dog, plasma, po, 30 mg/kg, i.g., Beagle 4
ASSAY_METRIC: AUC(0-t)
A complete answer gives the number and then names the unit.

Query block: Please list AUC(0-t) recorded for the molecule CNC(=O)c1cc(Oc2ccc(NC(=O)c3cccc(C(F)(F)F)c3)cc2)ccn1.Cc1ccc(S(=O)(=O)O)cc1.O [NCE]
Result block: 6860 ng·h/mL

###

assay: Pharmacokinetic study in beagle dogs; format: in vivo; details: beagle, dog, plasma, iv, 30 mg/kg, Beagle 2
ASSAY_METRIC: MRT (h)
Give the value in h but do not write h after it.

Query block: Please list MRT recorded for the compound CNC(=O)c1cc(Oc2ccc(NC(=O)c3cccc(C(F)(F)F)c3)cc2)ccn1.Cc1ccc(S(=O)(=O)O)cc1.O
Result block: 1.68

###

assay: Pharmacokinetic study in beagle dogs; assay type: in vivo; conditions: beagle, dog, plasma, iv, 30 mg/kg, Beagle 1
ASSAY_METRIC: AUC(0-t) (ng·h/mL)
Give the value in ng·h/mL but do not write ng·h/mL after it.

Query block: Please list AUC(0-t) recorded for the compound CNC(=O)c1cc(Oc2ccc(NC(=O)c3cccc(C(F)(F)F)c3)cc2)ccn1.Cc1ccc(S(=O)(=O)O)cc1.O
Result block: 56200

###

Test: Pharmacokinetic study in beagle dogs
Assay type: in vivo
Conditions: beagle, dog, plasma, po, 30 mg/kg, i.g., mean ± SD, n = 3
Procedure: Six healthy beagle dogs (7.97 ± 0.73 kg) were randomly assigned into two groups. NCE was given to the dogs by intragastrical (i.g.) and intravenous (i.v.) administration at a dosage of 30 mg/kg. Blood was collected from the forelimb vein of the dogs at 0.25, 0.5, 0.75, 1, 2, 3, 4, 6, 8, 10, 12 and 24 h. […] The concentrations of NCE in plasma were determined by HPLC. The pharmacokinetic parameters were calculated using the pharmacokinetics-intelligent analysis module of DAS 2.1.1 software. […]
ASSAY_METRIC: Cmax
A complete answer gives the number and then names the unit.

Query block: Please list Cmax recorded for the compound CNC(=O)c1cc(Oc2ccc(NC(=O)c3cccc(C(F)(F)F)c3)cc2)ccn1.Cc1ccc(S(=O)(=O)O)cc1.O
Result block: 2140 ng/mL
